target: Insulin receptor (Homo sapiens) (UniProt P06213); conditions: at 0.1 µM;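 further: reported values are averages of replicate inhibition measurements against the insulin receptor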
Sequence (P06213 28-758 limits assumed): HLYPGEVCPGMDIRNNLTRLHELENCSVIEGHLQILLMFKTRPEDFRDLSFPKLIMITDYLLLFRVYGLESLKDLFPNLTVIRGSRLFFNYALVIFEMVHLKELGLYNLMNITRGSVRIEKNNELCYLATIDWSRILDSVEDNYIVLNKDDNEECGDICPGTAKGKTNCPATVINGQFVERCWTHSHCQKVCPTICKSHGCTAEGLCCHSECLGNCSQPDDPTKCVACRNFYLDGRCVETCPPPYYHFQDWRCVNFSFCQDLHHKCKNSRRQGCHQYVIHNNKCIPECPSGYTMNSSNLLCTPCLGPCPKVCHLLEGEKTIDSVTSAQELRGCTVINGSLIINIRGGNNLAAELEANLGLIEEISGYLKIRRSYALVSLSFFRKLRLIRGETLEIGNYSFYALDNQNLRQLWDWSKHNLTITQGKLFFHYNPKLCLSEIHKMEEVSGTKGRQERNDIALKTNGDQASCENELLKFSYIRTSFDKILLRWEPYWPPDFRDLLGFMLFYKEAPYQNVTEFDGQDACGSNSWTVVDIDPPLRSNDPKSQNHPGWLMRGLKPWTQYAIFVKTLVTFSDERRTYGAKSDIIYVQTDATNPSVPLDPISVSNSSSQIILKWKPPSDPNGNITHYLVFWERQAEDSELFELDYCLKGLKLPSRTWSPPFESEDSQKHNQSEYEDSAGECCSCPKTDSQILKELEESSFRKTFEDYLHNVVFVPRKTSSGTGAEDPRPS
Sequence (P06213 763-1382 limits assumed): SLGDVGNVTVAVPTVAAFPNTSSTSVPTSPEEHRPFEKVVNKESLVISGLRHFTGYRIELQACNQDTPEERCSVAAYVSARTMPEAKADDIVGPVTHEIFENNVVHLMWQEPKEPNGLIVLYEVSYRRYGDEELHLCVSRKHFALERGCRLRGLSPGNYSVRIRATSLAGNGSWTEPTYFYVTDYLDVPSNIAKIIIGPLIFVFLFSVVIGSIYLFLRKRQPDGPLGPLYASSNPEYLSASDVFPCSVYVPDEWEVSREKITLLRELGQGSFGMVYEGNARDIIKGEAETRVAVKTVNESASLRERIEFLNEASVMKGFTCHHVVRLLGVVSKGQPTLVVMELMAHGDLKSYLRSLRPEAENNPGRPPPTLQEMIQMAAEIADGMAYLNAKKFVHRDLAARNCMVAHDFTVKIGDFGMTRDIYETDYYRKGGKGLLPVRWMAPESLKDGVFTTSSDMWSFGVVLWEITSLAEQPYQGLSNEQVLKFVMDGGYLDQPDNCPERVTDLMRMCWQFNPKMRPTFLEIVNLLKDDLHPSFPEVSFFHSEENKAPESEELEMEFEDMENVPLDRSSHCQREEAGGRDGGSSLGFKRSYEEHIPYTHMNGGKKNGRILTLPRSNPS
Lab note: anything with inhibition at or over 4% counts as 1 (yes); the rest go in 0 (no).

CN1CCN(C(=O)c2ccc(NC(=O)Nc3ccc(N(C)c4ccnc(Nc5ccc(CS(C)(=O)=O)cc5)n4)cc3)cc2)CC1 | 1 (yes)
O=C1Nc2ccc(-c3cccnc3)cc2C1=Cc1cc(Br)c(O)c(Br)c1 | 0 (no)
CN(C)CCCn1c(-c2nonc2N)nc2cnccc21 | 1 (yes)

# evaluate next
In plain terms: is recorded inhibition at least 4% for COc1ccc2ncnc(Nc3ccc(OCc4ccccc4)cc3)c2c1 ?
0 (no)
